This collection of values is drawn from ChEMBL document CHEMBL4699619.

Observed IC50 for Serine/threonine-protein kinase PLK1 (Homo sapiens), reported per entry below.
Non-standard residues stand in square brackets, D forms with d. Residues, ends and D or L forms follow the SMILES beside them. pT = C[C@@H](OP(=O)(O)O)[C@H](N)C(=O)O
Report the figure in µM without appending any unit label.

Some molecules with recorded IC50:
1) CNc1ccc(C(=O)NCCn2cc(C=C3C(=O)NC(=O)NC3=O)c(-c3ccccc3)n2)cc1 : 16.4
2) CC[C@H](C)[C@H](NC(=O)[C@H](C)NC(=O)[C@@H](NC(=O)[C@H](CO)NC(=O)[C@H](Cc1cnc[nH]1)NC(=O)[C@H](CC(C)C)NC(=O)[C@@H]1CCCN1C(C)=O)[C@@H](C)OP(=O)(O)O)C(=O)N[C@@H](Cc1ccc(O)cc1)C(=O)N[C@@H](C)C(N)=O (Ac-PLHS[pT]AIYA-NH2) : 0.23
3) O=C1NC(=O)C(=Cc2cn(Cc3ccccc3)nc2-c2ccccc2)C(=O)N1 : 52.7
4) O=C1NC(=O)C(=Cc2cn(-c3ccccc3)nc2-c2ccccc2)C(=O)N1 : 32.2

Next item in the queue.
Observed IC50 on Serine/threonine-protein kinase PLK1 (Homo sapiens) for "O=C1NC(=O)C(=Cc2cn(CCN3CCOCC3)nc2-c2ccccc2)C(=O)N1" , please.
Sequence (P53350 whole entry): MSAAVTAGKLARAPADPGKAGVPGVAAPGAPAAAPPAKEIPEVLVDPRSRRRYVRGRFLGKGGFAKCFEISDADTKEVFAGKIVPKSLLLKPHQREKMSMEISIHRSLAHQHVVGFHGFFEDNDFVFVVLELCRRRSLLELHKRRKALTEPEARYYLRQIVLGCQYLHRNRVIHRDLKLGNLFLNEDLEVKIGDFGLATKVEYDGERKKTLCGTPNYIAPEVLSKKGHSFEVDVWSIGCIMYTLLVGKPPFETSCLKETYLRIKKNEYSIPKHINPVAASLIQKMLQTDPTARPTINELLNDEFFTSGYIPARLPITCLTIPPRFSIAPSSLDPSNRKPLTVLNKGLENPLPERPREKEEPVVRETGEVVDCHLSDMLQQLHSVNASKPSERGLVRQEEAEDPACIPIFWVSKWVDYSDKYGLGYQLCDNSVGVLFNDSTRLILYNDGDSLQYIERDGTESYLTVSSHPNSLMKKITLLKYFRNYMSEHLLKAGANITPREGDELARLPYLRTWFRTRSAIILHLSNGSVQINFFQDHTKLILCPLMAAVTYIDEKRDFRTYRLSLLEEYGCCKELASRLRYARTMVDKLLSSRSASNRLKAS
71
